Each entry below carries its reported MFC.
# Tested on: Fulvia fulva
# Method: Antifungal activity against Fulvia fulva TK 5318 after 72 hrs by serial sub-cultivation method
# Type: functional
# Run conditions: TK 5318, 72 h
Answer with a number only, understood to be in µM.

molecule_smiles=O=C1N/C(=N/c2nc(C34CC5CC(CC(C5)C3)C4)cs2)S/C1=C\c1ccccc1Cl measured_parameter=MFC unit_info=µM endpoint_result=16.4

// switching to the query compound
[Q] Requested read-out: MFC. Entry: O=C1N/C(=N/c2nc(C34CC5CC(CC(C5)C3)C4)cs2)S/C1=C\c1ccc([N+](=O)[O-])cc1
[A] 21.5

----------
# Test system: Proteus mirabilis
# Method: Antibacterial activity against Proteus mirabilis after 72 hrs by serial sub-cultivation method
# Type: functional
Each entry below carries its reported MBC.
Answer with a number only, understood to be in µM.

compound=O=C1CS/C(=N/c2nc(C34CC5CC(CC(C5)C3)C4)cs2)N1 measured_parameter=MBC endpoint_result=71.7
compound="CN[C@@H]1[C@H](O[C@H]2[C@H](O[C@H]3[C@H](O)[C@@H](O)[C@H](N=C(N)N)[C@@H](O)[C@@H]3N=C(N)N)O[C@@H](C)[C@]2(O)C=O)O[C@@H](CO)[C@H](O)[C@H]1O [STREPTOMYCIN]" measured_parameter=MBC endpoint_result=344
compound=COc1ccc(/C=C2\S/C(=N\c3nc(C45CC6CC(CC(C6)C4)C5)cs3)NC2=O)cc1 measured_parameter=MBC endpoint_result=69.3
compound="CC1(C)S[C@@H]2[C@H](NC(=O)[C@H](N)c3ccccc3)C(=O)N2[C@H]1C(=O)O [AMPICILLIN]" measured_parameter=MBC endpoint_result=492
compound=O=C1N/C(=N/c2nc(C34CC5CC(CC(C5)C3)C4)cs2)S/C1=C\c1ccc(Cl)cc1 measured_parameter=MBC endpoint_result=65.7

[Q] Requested read-out: MBC. Entry: O=C1N/C(=N/c2nc(C34CC5CC(CC(C5)C3)C4)cs2)S/C1=C\c1ccccc1[N+](=O)[O-]
[A] 64.5

[Q] Requested read-out: MBC. Entry: O=C1N/C(=N/c2nc(C34CC5CC(CC(C5)C3)C4)cs2)S/C1=C\c1cccc([N+](=O)[O-])c1
[A] 64.5

[Q] Requested read-out: MBC. Entry: COc1cc(/C=C2\S/C(=N\c3nc(C45CC6CC(CC(C6)C4)C5)cs3)NC2=O)cc(OC)c1O
[A] 62.7

----------
Each entry below carries its reported MIC.
# System: Aspergillus flavus
# Method: Antifungal activity against Aspergillus flavus ATCC 9643 after 72 hrs by serial dilution method
# Assay type: functional
# Run conditions: ATCC 9643, 72 h
Answer with a number only, understood to be in µM.

Observe how each entry below is paired with its result.
molecule_smiles=O=C1N/C(=N/c2nc(C34CC5CC(CC(C5)C3)C4)cs2)S/C1=C\c1cccc(Cl)c1 target_desc="Aspergillus flavus" unit_info=µM endpoint_result=16.4
molecule_smiles=COc1cc(/C=C2\S/C(=N\c3nc(C45CC6CC(CC(C6)C4)C5)cs3)NC2=O)cc(OC)c1O target_desc="Aspergillus flavus" unit_info=µM endpoint_result=10.5
molecule_smiles=O=C1N/C(=N/c2nc(C34CC5CC(CC(C5)C3)C4)cs2)S/C1=C\c1ccc(Cl)cc1 target_desc="Aspergillus flavus" unit_info=µM endpoint_result=11
molecule_smiles=O=C1N/C(=N/c2nc(C34CC5CC(CC(C5)C3)C4)cs2)S/C1=C\c1ccc([N+](=O)[O-])cc1 target_desc="Aspergillus flavus" unit_info=µM endpoint_result=16.1

// switching to the query compound
[Q] Requested read-out: MIC. Entry: O=C1N/C(=N/c2nc(C34CC5CC(CC(C5)C3)C4)cs2)S/C1=C\c1ccccc1Cl
[A] 11

----------
# Test system: Bacillus cereus
# Method: Antibacterial activity against Bacillus cereus clinical isolate after 72 hrs by serial sub-cultivation method
# Format: functional
Measured parameter: MBC
The reply must contain the numeric value and, after it, the unit.

Observe how each entry below is paired with its result.
molecule_smiles=O=C1N/C(=N/c2nc(C34CC5CC(CC(C5)C3)C4)cs2)S/C1=C\c1ccc([N+](=O)[O-])cc1 target_desc="Bacillus cereus" measured_parameter=MBC endpoint_result="21.5 µM"
molecule_smiles=COc1ccc(/C=C2\S/C(=N\c3nc(C45CC6CC(CC(C6)C4)C5)cs3)NC2=O)cc1 target_desc="Bacillus cereus" measured_parameter=MBC endpoint_result="23.1 µM"
molecule_smiles=COc1cc(/C=C2\S/C(=N\c3nc(C45CC6CC(CC(C6)C4)C5)cs3)NC2=O)cc(OC)c1O target_desc="Bacillus cereus" measured_parameter=MBC endpoint_result="20.9 µM"

[Q] Requested read-out: MBC. Entry: COc1cc(/C=C2\S/C(=N\c3nc(C45CC6CC(CC(C6)C4)C5)cs3)NC2=O)ccc1O
[A] 21.9 µM

----------
Each entry below carries its reported MBC.
# Tested on: Bacillus cereus
# Method: Antibacterial activity against Bacillus cereus clinical isolate after 72 hrs by serial sub-cultivation method
# Type: functional
Answer with a number only, understood to be in µM.

[Q] Requested read-out: MBC. Entry: O=C1N/C(=N/c2nc(C34CC5CC(CC(C5)C3)C4)cs2)S/C1=C\c1ccccc1Cl
[A] 43.8

----------
# Test system: Staphylococcus aureus
# Method: Antibacterial activity against Staphylococcus aureus ATCC 6538 after 72 hrs by serial sub-cultivation method
# Format: functional
# Run conditions: ATCC 6538, 72 h
Each entry below carries its reported MBC.
Answer with a number only, understood to be in µM.

Observe how each entry below is paired with its result.
molecule_smiles=COc1cc(/C=C2\S/C(=N\c3nc(C45CC6CC(CC(C6)C4)C5)cs3)NC2=O)cc(OC)c1O endpoint_result=15.7
molecule_smiles=O=C1N/C(=N/c2nc(C34CC5CC(CC(C5)C3)C4)cs2)S/C1=C\c1ccccc1[N+](=O)[O-] endpoint_result=21.5
molecule_smiles=O=C1N/C(=N/c2nc(C34CC5CC(CC(C5)C3)C4)cs2)S/C1=C\c1ccc(O)cc1 endpoint_result=45.8

[Q] Requested read-out: MBC. Entry: O=C1N/C(=N/c2nc(C34CC5CC(CC(C5)C3)C4)cs2)S/C1=C\c1ccc([N+](=O)[O-])cc1
[A] 43

[Q] Requested read-out: MBC. Entry: COc1ccc(/C=C2\S/C(=N\c3nc(C45CC6CC(CC(C6)C4)C5)cs3)NC2=O)cc1
[A] 46.2

[Q] Requested read-out: MBC. Entry: O=C1N/C(=N/c2nc(C34CC5CC(CC(C5)C3)C4)cs2)S/C1=C\c1cccc([N+](=O)[O-])c1
[A] 43

[Q] Requested read-out: MBC. Entry: O=C1N/C(=N/c2nc(C34CC5CC(CC(C5)C3)C4)cs2)S/C1=C\c1ccc(Cl)cc1
[A] 43.8

[Q] Requested read-out: MBC. Entry: O=C1N/C(=N/c2nc(C34CC5CC(CC(C5)C3)C4)cs2)S/C1=C\c1ccccc1Cl
[A] 43.8

----------
# Tested on: Trichoderma viride
# Method: Antifungal activity against Trichoderma viride IAM 5061 after 72 hrs by serial sub-cultivation method
# Assay type: functional
# Run conditions: IAM 5061, 72 h
Each entry below carries its reported MFC.
Answer with a number only, understood to be in µM.

Observe how each entry below is paired with its result.
compound=O=C1CS/C(=N/c2nc(C34CC5CC(CC(C5)C3)C4)cs2)N1 measured_parameter=MFC endpoint_result=23.8
compound=O=C1N/C(=N/c2nc(C34CC5CC(CC(C5)C3)C4)cs2)S/C1=C\c1ccccc1Cl measured_parameter=MFC endpoint_result=21.9
compound=O=C1N/C(=N/c2nc(C34CC5CC(CC(C5)C3)C4)cs2)S/C1=C\c1ccc(Cl)cc1 measured_parameter=MFC endpoint_result=16.4
compound="CC(=O)N1CCN(c2ccc(OCC3COC(Cn4ccnc4)(c4ccc(Cl)cc4Cl)O3)cc2)CC1 (stereo not drawn)" measured_parameter=MFC endpoint_result=5700
compound=COc1cc(/C=C2\S/C(=N\c3nc(C45CC6CC(CC(C6)C4)C5)cs3)NC2=O)cc(OC)c1O measured_parameter=MFC endpoint_result=20.9
compound=O=C1N/C(=N/c2nc(C34CC5CC(CC(C5)C3)C4)cs2)S/C1=C\c1ccc([N+](=O)[O-])cc1 measured_parameter=MFC endpoint_result=21.5

[Q] // lookup MFC | system=Trichoderma viride | key= COc1cc(/C=C2\S/C(=N\c3nc(C45CC6CC(CC(C6)C4)C5)cs3)NC2=O)ccc1O
[A] 21.9

[Q] // lookup MFC | system=Trichoderma viride | key= c1ccc(-c2ccc(C(c3ccccc3)n3ccnc3)cc2)cc1 (stereo not drawn)
[A] 800

----------
Each entry below carries its reported MBC.
# Test system: Escherichia coli
# Method: Antibacterial activity against Escherichia coli ATCC 35210 after 72 hrs by serial sub-cultivation method
# Assay type: functional
# Run conditions: ATCC 35210, 72 h
The reply must contain the numeric value and, after it, the unit.

Observe how each entry below is paired with its result.
molecule_smiles=O=C1N/C(=N/c2nc(C34CC5CC(CC(C5)C3)C4)cs2)S/C1=C\c1cccc(Cl)c1 endpoint_result="43.8 µM"
molecule_smiles=COc1cc(/C=C2\S/C(=N\c3nc(C45CC6CC(CC(C6)C4)C5)cs3)NC2=O)cc(OC)c1O endpoint_result="41.8 µM"
molecule_smiles=O=C1N/C(=N/c2nc(C34CC5CC(CC(C5)C3)C4)cs2)S/C1=C\c1cccc([N+](=O)[O-])c1 endpoint_result="21.5 µM"

// switching to the query compound
[Q] Requested read-out: MBC. Entry: COc1cc(/C=C2\S/C(=N\c3nc(C45CC6CC(CC(C6)C4)C5)cs3)NC2=O)ccc1O
[A] 16.4 µM
